# ASSAYED SYSTEM: TUBA8
# PROCEDURE DETAILS: pooled miR-30 sensor sort-seq; sequence = guide strand; further: reference of the scale not given here
# EXPERIMENTAL CONDITIONS: shRNA
Catalogue of sequences with associated sensor-assay potency score (higher = more potent)
In your answer, state the number alone without any accompanying words.

Name the recorded sensor-assay potency score (higher = more potent) of the sequence listed here: TGATCTTGCTAGCTTGAGCATC
-1.14

Report sensor-assay potency score (higher = more potent), nothing else, for this sequence: TTTCTTCTTCAAACGAATCAGT
-0.469

Kindly indicate its recorded sensor-assay potency score (higher = more potent). Item: TCATCATCGTTGATCTTGCTAG
-0.473

Kindly indicate its recorded sensor-assay potency score (higher = more potent). Item: TCGCACTTCACCATCTGGCTGT
-0.0578

Identify the reported sensor-assay potency score (higher = more potent) for the following entry. TACATGAGGTCGAACTTGTGGT
-0.814

Output measured sensor-assay potency score (higher = more potent) for this item: TTGAGGACACAATCTGACTGAT
-0.409

* * *

# ASSAYED SYSTEM: PSPH
# PROCEDURE DETAILS: pooled miR-30 sensor sort-seq; sequence = guide strand
# EXPERIMENTAL CONDITIONS: shRNA
This section presents sequences with their documented sensor-assay potency score (higher = more potent) values.
No unit in the answer, only the number.

Example results:
# RESIDUE SEQUENCE, NUMERIC VALUE
rows = [
    ("AAAACCTGCATATTCACCGTTA", 0.263),
    ("TCTTCTCTGATGACCGTGCTGT", 0.253),
]

Provide measured sensor-assay potency score (higher = more potent) value, entry: TAAGCAAACAGTATCAATCTGT
0.453

* * *

Measured sensor-assay potency score (higher = more potent) by item
# ASSAYED SYSTEM: SIRPD
# PROCEDURE DETAILS: pooled miR-30 sensor sort-seq; sequence = guide strand
# EXPERIMENTAL CONDITIONS: shRNA
Just the number, please, no unit after it.

# RESIDUE SEQUENCE, NUMERIC VALUE
records = [
    ("TACTCCTTGATAGCTCTTCCTT", -0.857),
]

Write down sensor-assay potency score (higher = more potent) measured for item TACAGTCTGTGACATCTCCGTT
-0.562

Given the sequence TTTGTTATTTACTTGTACGTTC , write its reported sensor-assay potency score (higher = more potent).
0.326

Consider the sequence TTGCACATGGAACACATGTGTG . State its measured sensor-assay potency score (higher = more potent).
-0.922

Fill in sensor-assay potency score (higher = more potent) for record TGAACCACAAGACAGGTCCATT
-1.29

Determine its reported sensor-assay potency score (higher = more potent): TTGTAGATTAATTTCCGGTTTG
-0.577

Report sensor-assay potency score (higher = more potent), nothing else, for this sequence: TTACTCTGGGAAAGTTACCTTG
-0.709

Indicate its recorded sensor-assay potency score (higher = more potent); the sequence in question is TTAATTTCCGGTTTGGCCCTGT
0.897

* * *

# ASSAYED SYSTEM: PTGDS
# PROCEDURE DETAILS: pooled miR-30 sensor sort-seq; sequence = guide strand
# EXPERIMENTAL CONDITIONS: shRNA
Classification field: fulfilled = sensor-assay potency score (higher = more potent) at or over -0.9; not fulfilled = sensor-assay potency score (higher = more potent) under -0.9.

Is the recorded value of sensor-assay potency score (higher = more potent) equal to or greater than -0.9 for this sequence? TTGCACATGGACAACGCCGCCT
fulfilled

Kindly determine if sensor-assay potency score (higher = more potent) recorded for TACTGGTCGTAGTCGGTCTCCA is above or exactly -0.9.
fulfilled
